Molecular target: T1, cynomolgus CX3CR1 (cynomolgus, UniProt P49238 1-355 (human entry))
T1 construct: transiently expressed on HEK293T cells; also called cyCX3CR1; cyno CX3CR1
T1 chain: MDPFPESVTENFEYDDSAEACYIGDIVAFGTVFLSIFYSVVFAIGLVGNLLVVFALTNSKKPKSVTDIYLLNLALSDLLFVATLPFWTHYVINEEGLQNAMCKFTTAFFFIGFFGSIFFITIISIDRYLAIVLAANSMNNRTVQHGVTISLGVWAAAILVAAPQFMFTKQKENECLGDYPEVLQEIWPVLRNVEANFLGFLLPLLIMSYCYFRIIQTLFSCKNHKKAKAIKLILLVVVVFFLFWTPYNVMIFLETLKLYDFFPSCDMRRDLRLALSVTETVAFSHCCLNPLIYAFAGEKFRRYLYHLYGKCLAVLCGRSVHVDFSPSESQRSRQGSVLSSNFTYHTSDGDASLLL
Assay: A647-fractalkine competition FACS, HEK293T cynomolgus CX3CR1
Method: Periplasmic extracts were screened in a human CX3CR1/human Fractalkine FACS competition assay to assess the blocking capacity of the expressed VHHs. Human CX3CR1 was presented on CHO cells overexpressing CX3CR1. […] After one hour incubation at 4 C, cells were washed three times before read out was performed on a FACS Array (Becton Dickinson). First a gate was set on the intact cells as determined from the scatter profile. […]
READOUT_LABEL: % block

Here is how some binders turned out for % block.
{"BINDER": "CX3CR1BIIPMP54G3 (VHH, also called 54G03; not shown: C-terminal c-myc and His6 tags) VHH: EVQLVESGGGSVQAGESLRLSCAASGSIFSSNAMAWYRQAPGKQRDLVALINSVGITKYADSVKGRFTISRDNAKNTVYLQMNSLKPEDTAVYYCTSDPRRGWDTRYWGQGTLVTVSS", "RESULT_VALUE": "89%"}
{"BINDER": "CX3CR1BIIPMP61F11 (VHH, not shown: C-terminal c-myc and His6 tags) VHH: KVQLVESGGGSVQAGESLRLSCAASGSIFSSNAMAWYRQPPGKQRDLVAAINSVGITKYADSVKGRFTIFRDNAKNTVYLQMNSLKPEDTAVYYCTSDPRRGWDTRYWGQGTQVTVSS", "RESULT_VALUE": "95%"}

Hi, could you look up % block for each item in my list?
1. CX3CR1BIIPMP66B02 (VHH, alexa647 label where used as labeled competitor (Table 23), also called CX3CR1BII66B02; C100CX3CR1BII66B02; not shown: C-terminal c-myc and His6 tags) VHH: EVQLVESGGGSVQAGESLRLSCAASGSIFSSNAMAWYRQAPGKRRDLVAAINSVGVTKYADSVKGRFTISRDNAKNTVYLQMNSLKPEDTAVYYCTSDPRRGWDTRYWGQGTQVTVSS
2. CX3CR1BIIPMP54A12 (VHH, also called CX3CR1BII54A12; not shown: C-terminal c-myc and His6 tags) VHH: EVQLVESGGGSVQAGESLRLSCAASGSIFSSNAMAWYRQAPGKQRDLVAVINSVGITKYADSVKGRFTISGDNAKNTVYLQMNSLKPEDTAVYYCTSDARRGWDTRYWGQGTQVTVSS
3. CX3CR1BIIPMP61G3 (VHH, also called 61G03; not shown: C-terminal c-myc and His6 tags) VHH: KVQLVESGGGSMQAGESLRLSCAASGSIFSSNAMAWYRQAPGKQRDLVAAINSVGITKYADSVKGRFTISRDNAKNTVYLQMMSLKPEDTAVYYCTSDPRRGWDTRYWGQGTQVTVSS
4. CX3CR1BIIPMP61G4 (VHH, also called 61G04; not shown: C-terminal c-myc and His6 tags) VHH: KVQLVESGGGSVQAGGSLRLSCAASGSIFSSNAMAWYRQAPGKQRDLVAAINSVGITKYADSVKGRFTISRDNAKNTVYLQMMSLKPEDTAVYYCTSDPRRGWDTRYWGQGTQVTVSS

Response given:
1: 97%; 2: 94%; 3: 89%; 4: 100%

Hi, could you look up % block for each item in my list?
1. CX3CR1BIIPMP54D8 (VHH, also called 54D08; CX3CR1BII54D08; not shown: C-terminal c-myc and His6 tags) VHH: EVQLVESGGGSVQAGGSLRLSCAASGSIFSSNAMAWYRQAPGKQRDLVAGINSVGITKYADSVKGRFTISRDNAKNTVYLQMNSLKPEDTAVYYCTSDPRRGWDTRYWGQGTLVTVSS
2. CX3CR1BIIPMP61E2 (VHH, also called 61E02; not shown: C-terminal c-myc and His6 tags) VHH: EVQLVESGGGSVQAGESLRLSCAASGSIFSSNAMAWYRQAPGKQRDLVAGINSVGITKYADSVKGRFTISRDNAKNTVYLQMNSLKPEDMAVYYCTSDPRRGWDTRYWGQGTQVTVSS

Response given:
1: 91%; 2: 96%
